Test system: Escherichia coli TOP10;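 further: peptides expressed intracellularly from a pBAD plasmid library in pooled LB shake-flask culture, induced with 0.3% L-arabinose, DNA abundance read by NGS, three biological replicates, DESeq2 with apeglm shrinkage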
experimental.protocol: shrunken log2 fold change of peptide-encoding DNA abundance (4.5 h post-induction vs induction); higher = less antimicrobial activity (less host growth inhibition)
reported.conditions: time post-induction: 4.5 h; library: site-saturation at positions 5, 18, 19, 20
Tick True if shrunken log2 fold change is -0.09 or greater. Tick False if shrunken log2 fold change is less than -0.09.

Q: Could you tell me if the measured shrunken log2 fold change of `RRIRRRPPRLPRPRPRPHTDPRP` reaches -0.09 or more?
A: False

Q: Lookup `RRIRNRPPRLPRPRPRPVYVPRP`
A: False

Q: Same read-out for `RRIRIRPPRLPRPRPRPGPDPRP` ?
A: True

Q: Now consider `RRIRKRPPRLPRPRPRPYVNPRP` .
A: False

Q: Entry `RRIRCRPPRLPRPRPRPQSRPRP` please
A: True

Q: Moving on to the next sequence: `RRIRIRPPRLPRPRPRPIKTPRP`
A: True

Q: Next entry: `RRIRKRPPRLPRPRPRPWLLPRP`
A: True

Q: Same lookup for `RRIRTRPPRLPRPRPRPYSCPRP` , please.
A: True

Q: Entry `RRIRKRPPRLPRPRPRPGHVPRP` please
A: False

Q: Can you handle `RRIRDRPPRLPRPRPRPRNFPRP` next?
A: True

Q: Next entry: `RRIRDRPPRLPRPRPRPWVHPRP`
A: True

Q: Now give it for `RRIRIRPPRLPRPRPRPKMHPRP` too.
A: False

Q: How about this sequence: `RRIRFRPPRLPRPRPRPQTMPRP`
A: False

Q: Entry to check: `RRIRARPPRLPRPRPRPGMDPRP`
A: True
